# Test system: Staphylococcus aureus
# ASSAY COMMENT: Antibacterial activity methicillin-resistant Staphylococcus aureus MRSA ST-5457 assessed as inhibition of bacterial growth incubated for 16 to 24 hrs by broth microdilution assay
# Assay type: functional
# CONDITION PARAMETERS: time 16-24 hrs
Reported MIC by item:

TEST SMILES: O=C(/C=C/c1ccc(Cl)cc1)c1ccc(O)cc1
MIC: 25 µg/mL

TEST SMILES: O=C(/C=C/c1c[nH]c2ccccc12)c1cccc(OCc2ccccc2)c1
MIC: 12.5 µg/mL

TEST SMILES: COc1cc(C(=O)/C=C/c2ccc(O)cc2)ccc1O
MIC: 12.5 µg/mL

TEST SMILES: O=C(/C=C/c1ccc(O)c(O)c1)c1ccc(-c2ccccc2)cc1
MIC: 25 µg/mL

These data points were gathered from ChEMBL document CHEMBL5233215.
